Entries and their yeast fitness values follow.
B1: tRNA (parent)
chain: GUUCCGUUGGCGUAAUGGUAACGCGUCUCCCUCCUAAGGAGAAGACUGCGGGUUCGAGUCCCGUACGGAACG

Variants of: B1
Experiment: yeast fitness relative to wild type (ratio to wild type); higher = fitter; tRNA-Arg(CCU), competitive growth, 37 C, YPD
This sample holds only a part of the variants without activity.

The cases that follow already have their yeast fitness on record.
| residue change | yeast fitness |
| --- | --- |
| C31A C33G A36U C60U U64G A65U A69C | ≤ 0.5 |
| A14G A42U G44C U54A | ≤ 0.5 |

Lab note: measured yeast fitness of G10C A20G C24U G38C G56C C66U was ≤ 0.5

Origin of values: the RNAGym collection of RNA variant scans (doi:10.1126/science.aae0568)
